subject of test: T1, Human Id2: Histidine (human, UniProt Q02363 1-134, limits assumed)
T1 construct: Fusion protein made in E. coli from vector pGW07; also called h-Id2: His; not shown: His tag
T1 sequence (looked up): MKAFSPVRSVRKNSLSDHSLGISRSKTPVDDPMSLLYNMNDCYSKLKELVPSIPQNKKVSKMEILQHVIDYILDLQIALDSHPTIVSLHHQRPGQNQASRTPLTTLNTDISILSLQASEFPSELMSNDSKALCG
assay explanation: ELISA, Ab 0.100 µg/ml
Measured A450 of individual entries
Form entry: enter the amount, then its unit.

Recorded results for 3 binders are shown here.
| binder | A450 |
| --- | --- |
| rabbit monoclonal anti-human Id3, clone #BCH-4/#3-3 (antibody, V domains shown, Rabbit IgG from a rabbit hybridoma; also called h Id3 MoAb 3-3) VH: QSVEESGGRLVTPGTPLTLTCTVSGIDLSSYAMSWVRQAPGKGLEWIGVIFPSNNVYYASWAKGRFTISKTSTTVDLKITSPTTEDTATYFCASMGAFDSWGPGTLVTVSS VL: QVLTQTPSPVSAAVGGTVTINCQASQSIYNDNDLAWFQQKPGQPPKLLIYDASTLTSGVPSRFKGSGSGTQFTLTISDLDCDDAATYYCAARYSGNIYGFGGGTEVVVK | 0.048 A450 |
| rabbit monoclonal anti-mouse/human Id3, clone #BCH-4/#17-3 (antibody, V domains shown, Rabbit IgG from a rabbit hybridoma; also called m/h Id3 MoAb 17-3; BCH-3/#17-3) VH: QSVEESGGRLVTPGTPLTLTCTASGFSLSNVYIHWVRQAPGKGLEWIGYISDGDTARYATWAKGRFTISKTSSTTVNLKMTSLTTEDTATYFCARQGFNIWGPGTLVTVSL VL: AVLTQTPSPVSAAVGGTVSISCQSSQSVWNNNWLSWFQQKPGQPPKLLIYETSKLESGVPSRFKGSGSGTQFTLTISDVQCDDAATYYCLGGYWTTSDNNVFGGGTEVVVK | 0.048 A450 |
| rabbit monoclonal anti-mouse/human Id3, clone #BCH-4/#42-1 (antibody, V domains shown, Rabbit IgG from a rabbit hybridoma; also called m/h Id3 MoAb 42-1) VH: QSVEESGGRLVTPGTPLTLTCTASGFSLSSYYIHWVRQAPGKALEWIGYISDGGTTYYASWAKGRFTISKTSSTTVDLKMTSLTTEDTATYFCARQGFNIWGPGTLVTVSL VL: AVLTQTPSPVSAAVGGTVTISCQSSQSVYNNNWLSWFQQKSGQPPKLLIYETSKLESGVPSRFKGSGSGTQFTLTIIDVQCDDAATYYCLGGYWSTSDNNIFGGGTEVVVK | 0.046 A450 |

# ---- query binder ----
Kindly note the recorded A450 for rabbit monoclonal anti-mouse/human Id3, clone #BCH-4/#16-1 (antibody, V domains shown, Rabbit IgG from a rabbit hybridoma; also called m/h Id3 MoAb 16-1) VH: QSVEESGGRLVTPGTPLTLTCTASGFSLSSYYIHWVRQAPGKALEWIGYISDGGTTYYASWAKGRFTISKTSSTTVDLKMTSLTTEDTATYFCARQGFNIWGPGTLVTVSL VL: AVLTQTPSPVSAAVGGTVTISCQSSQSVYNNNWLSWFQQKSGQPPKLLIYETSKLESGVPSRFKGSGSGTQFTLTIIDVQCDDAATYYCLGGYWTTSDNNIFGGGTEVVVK , which is 0.048 A450
